# MEASUREMENT NOTES: In vivo pharmacokinetics test in rat
# CONDITIONS: plasma, po, male SD rats, intragastric, 10 mg/kg, crystalline form A used, read-out: Drug concentration in blood Cmax
READOUT: Cmax
Record the result as a number with its unit.

Reported Cmax for "Cc1sc2c(c1C)C(c1ccc(Cl)cc1)=N[C@@H](CC(=O)Nc1ccc3c(c1)COC3=O)c1nnc(C)n1-2" was 1160 nM

---

# SYSTEM TESTED: hERG potassium ion channel (Homo sapiens (Human), UniProt Q12809)
# Sequence (Q12809 whole entry): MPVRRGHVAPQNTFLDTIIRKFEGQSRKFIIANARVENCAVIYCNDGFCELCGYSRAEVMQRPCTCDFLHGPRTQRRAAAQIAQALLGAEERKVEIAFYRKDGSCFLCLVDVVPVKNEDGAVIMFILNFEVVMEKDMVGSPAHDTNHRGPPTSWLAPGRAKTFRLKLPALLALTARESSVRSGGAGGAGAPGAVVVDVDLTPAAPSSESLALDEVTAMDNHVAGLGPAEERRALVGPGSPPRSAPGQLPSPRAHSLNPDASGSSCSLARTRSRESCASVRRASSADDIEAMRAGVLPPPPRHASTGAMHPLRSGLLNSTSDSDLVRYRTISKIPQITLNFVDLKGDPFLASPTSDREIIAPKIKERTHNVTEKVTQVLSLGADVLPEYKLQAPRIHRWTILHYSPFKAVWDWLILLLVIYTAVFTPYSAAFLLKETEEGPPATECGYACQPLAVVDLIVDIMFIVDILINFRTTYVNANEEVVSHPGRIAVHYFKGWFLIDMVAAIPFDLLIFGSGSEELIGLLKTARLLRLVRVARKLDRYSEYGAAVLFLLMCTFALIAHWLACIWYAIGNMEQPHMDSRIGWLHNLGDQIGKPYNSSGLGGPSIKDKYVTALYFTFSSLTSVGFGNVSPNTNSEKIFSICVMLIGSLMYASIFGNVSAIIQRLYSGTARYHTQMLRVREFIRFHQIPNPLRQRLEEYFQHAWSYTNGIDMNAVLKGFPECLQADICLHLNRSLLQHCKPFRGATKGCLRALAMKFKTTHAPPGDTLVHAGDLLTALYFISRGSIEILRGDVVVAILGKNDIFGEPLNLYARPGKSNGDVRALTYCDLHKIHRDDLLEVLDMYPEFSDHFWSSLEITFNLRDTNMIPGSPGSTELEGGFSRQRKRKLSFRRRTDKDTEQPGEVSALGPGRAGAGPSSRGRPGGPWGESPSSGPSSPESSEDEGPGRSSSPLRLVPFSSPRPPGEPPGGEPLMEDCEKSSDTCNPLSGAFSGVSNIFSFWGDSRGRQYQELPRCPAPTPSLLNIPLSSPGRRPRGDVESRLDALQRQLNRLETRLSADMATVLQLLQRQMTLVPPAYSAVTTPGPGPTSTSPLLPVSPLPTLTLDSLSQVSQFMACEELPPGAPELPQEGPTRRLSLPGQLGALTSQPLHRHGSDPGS
# MEASUREMENT NOTES: hERG potassium channel current, automatic patch-clamp QPatch, CHO-hERG cells
# CONDITIONS: highest test concentration 40 μM
READOUT: IC50

Reported IC50 for Cc1sc2c(c1C)C(c1ccc(Cl)cc1)=N[C@@H](CC(=O)Nc1ccc3c(c1)COC3=O)c1nnc(C)n1-2 [Compound of formula (I)] was > 40 µM

---

# MEASUREMENT NOTES: In vivo pharmacokinetics test in rat
# CONDITIONS: plasma, po, male SD rats, intragastric, 10 mg/kg, crystalline form A used
READOUT: bioavailability (%)
Express the result in % but write the number alone.

Reported bioavailability for Cc1sc2c(c1C)C(c1ccc(Cl)cc1)=N[C@@H](CC(=O)Nc1ccc3c(c1)COC3=O)c1nnc(C)n1-2 [Compound of formula (I)] was 29.3

---

# MEASUREMENT NOTES: In vivo pharmacokinetics test in rat
# CONDITIONS: plasma, male SD rats, intravenous, 2 mg/kg, crystalline form A used, read-out: Clearance rate Cl
READOUT: clearance
Record the result as a number with its unit.

Reported clearance for Cc1sc2c(c1C)C(c1ccc(Cl)cc1)=N[C@@H](CC(=O)Nc1ccc3c(c1)COC3=O)c1nnc(C)n1-2 [Compound of formula (I)] was 28.3 mL/min/kg

---

# MEASUREMENT NOTES: In vivo pharmacokinetics test in rat
# CONDITIONS: plasma, po, male SD rats, intragastric, 10 mg/kg, crystalline form A used, read-out: Area under curve (0-t) AUC0-last
READOUT: AUC(0-t)
Record the result as a number with its unit.

Reported AUC(0-t) for Cc1sc2c(c1C)C(c1ccc(Cl)cc1)=N[C@@H](CC(=O)Nc1ccc3c(c1)COC3=O)c1nnc(C)n1-2 [Compound of formula (I)] was 3.22 µM·h

---

# MEASUREMENT NOTES: In vivo pharmacokinetics test in rat
# CONDITIONS: plasma, po, male SD rats, intragastric, 10 mg/kg, crystalline form A used, read-out: Area under curve (0-inf) AUC0-inf
# Method: Male SD rats were used as test animals. The compound of formula (I) was administrated intravenously and intragastrically to rats, and then the drug concentrations in the plasma at different time points were determined by the LC/MS/MS method. The in vivo pharmacokinetic behavior of the compound of formula (I) in rats was studied, and its pharmacokinetic characteristics were evaluated. 1.1 Experiment Drug: The Compound of Formula (I) (the Crystalline Form A) […]
READOUT: AUC(0-inf) (µM·h)
Express the result in µM·h but write the number alone.

Reported AUC(0-inf) for "Cc1sc2c(c1C)C(c1ccc(Cl)cc1)=N[C@@H](CC(=O)Nc1ccc3c(c1)COC3=O)c1nnc(C)n1-2" was 3.25

---

# MEASUREMENT NOTES: In vivo pharmacokinetics test in mice
# CONDITIONS: mouse, plasma, po; female Balb/c mice, intragastric, 3 mg/kg; read-out: Bioavailability F
READOUT: bioavailability (%)
Express the result in % but write the number alone.

Reported bioavailability for "Cc1sc2c(c1C)C(c1ccc(Cl)cc1)=N[C@@H](CC(=O)Nc1ccc3c(c1)COC3=O)c1nnc(C)n1-2" was 37.5

---

# MEASUREMENT NOTES: In vivo pharmacokinetics test in rat
# CONDITIONS: plasma, male SD rats, intravenous, 2 mg/kg, crystalline form A used, read-out: Area under curve (0-inf) AUC0-inf
READOUT: AUC(0-inf) (µM·h)
Express the result in µM·h but write the number alone.

Reported AUC(0-inf) for "Cc1sc2c(c1C)C(c1ccc(Cl)cc1)=N[C@@H](CC(=O)Nc1ccc3c(c1)COC3=O)c1nnc(C)n1-2" was 2.22

---

# MEASUREMENT NOTES: In vivo pharmacokinetics test in rat
# CONDITIONS: plasma, male SD rats, intravenous, 2 mg/kg, crystalline form A used, read-out: Apparent distribution Vdss
READOUT: Vd (L/kg)
Express the result in L/kg but write the number alone.

Reported Vd for "Cc1sc2c(c1C)C(c1ccc(Cl)cc1)=N[C@@H](CC(=O)Nc1ccc3c(c1)COC3=O)c1nnc(C)n1-2" was 1.48

---

# MEASUREMENT NOTES: In vivo pharmacokinetics test in rat
# CONDITIONS: plasma, po, male SD rats, intragastric, 10 mg/kg, crystalline form A used, read-out: Half life T1/2 (converted)
READOUT: half-life (h)
Express the result in h but write the number alone.

Reported half-life for "Cc1sc2c(c1C)C(c1ccc(Cl)cc1)=N[C@@H](CC(=O)Nc1ccc3c(c1)COC3=O)c1nnc(C)n1-2" was 1.01

---

# MEASUREMENT NOTES: In vivo pharmacokinetics test in rat
# CONDITIONS: plasma, male SD rats, intravenous, 2 mg/kg, crystalline form A used, read-out: Area under curve (0-t) AUC0-last
READOUT: AUC(0-t) (nM·h)
Express the result in nM·h but write the number alone.

Reported AUC(0-t) for "Cc1sc2c(c1C)C(c1ccc(Cl)cc1)=N[C@@H](CC(=O)Nc1ccc3c(c1)COC3=O)c1nnc(C)n1-2" was 2210
